Value source: patent EP0142057A2

- System: vascular permeability in rat skin
- Experiment summary: Rat skin permeability, in vivo (LTE4-induced skin wheal)
- Design: species or system rats
- Assay setup: Table II; 10mg/kg iv; LTE4 wheal
Readout kind: Rat Skin Permeability % Inhibition (10mg/kg iv) (%)
Note: unit % is implicit; provide only the numeric part.

Examples from the recorded data:
# lookup: Rat Skin Permeability % Inhibition (10mg/kg iv) of CC(C)c1ccc2nc3sc(C(=O)NCCCCn4ccnc4)cn3c(=O)c2c1 [Example 6, hydrate]
61

Proceed to CC(C)c1ccc2nc3sc(C(=O)NCCCCc4cccnc4)cn3c(=O)c2c1
35

Try CC(C)c1ccc2nc3sc(C(=O)N(C)CCCCc4cccnc4)cn3c(=O)c2c1 next.
72

Let us examine a further case.
Query (compound): CC(C)c1cc(C(C)C)c2nc3sc(C(=O)NCCCCc4cccnc4)cn3c(=O)c2c1 ; field requested: Rat Skin Permeability % Inhibition (10mg/kg iv)
38

---

- Assayed target: TXA2 synthase (Homo sapiens, UniProt P24557)
- Construct: using microsomal fractions from human platelets as enzyme source; from tissue; host or cells: human platelets (microsomal fraction)
- Sequence (P24557 whole entry): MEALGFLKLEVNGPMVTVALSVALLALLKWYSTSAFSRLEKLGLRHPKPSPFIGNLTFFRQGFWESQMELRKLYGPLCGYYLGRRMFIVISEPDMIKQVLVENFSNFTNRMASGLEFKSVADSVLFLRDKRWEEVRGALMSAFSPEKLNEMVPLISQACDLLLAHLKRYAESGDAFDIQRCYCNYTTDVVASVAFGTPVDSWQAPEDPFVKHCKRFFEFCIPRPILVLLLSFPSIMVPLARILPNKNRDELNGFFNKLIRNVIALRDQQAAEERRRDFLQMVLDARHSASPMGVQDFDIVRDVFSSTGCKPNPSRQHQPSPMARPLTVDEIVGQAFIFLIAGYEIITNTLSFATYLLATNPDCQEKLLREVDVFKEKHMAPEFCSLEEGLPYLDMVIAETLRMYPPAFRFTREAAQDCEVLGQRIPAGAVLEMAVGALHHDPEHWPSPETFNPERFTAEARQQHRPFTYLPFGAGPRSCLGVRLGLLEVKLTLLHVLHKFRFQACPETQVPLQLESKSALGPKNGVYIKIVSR
- Experiment summary: Thromboxane synthase inhibition, in vitro
- Format: biochemical
- Assay setup: at 10^-7M; microsomal fractions from human platelets; read-out: TXA2Synthase Inhibition (% at 10^-7M)
Readout kind: inhibition at 0.1 µM (%)
Give just the numeric value; % need not be written.

// inhibition at 0.1 µM lookup, key: CC(C)c1ccc2nc3sc(C(=O)NCCCCCCc4cccnc4)cn3c(=O)c2c1
36

Another compound: CC(C)c1ccc2nc3sc(C(=O)NCCCCOc4cccnc4)cn3c(=O)c2c1
30

Next record, please: CC(C)c1cc(C(C)C)c2nc3sc(C(=O)NCCCCc4cccnc4)cn3c(=O)c2c1 [the 1st table, row 5]
63

Same thing, different compound: CC(C)c1ccc2nc3sc(C(=O)NCCCCn4ccnc4)cn3c(=O)c2c1 [the 1st table, row 8]
67

API: the following record is the query input.
Requested read-out: inhibition at 0.1 µM. Entry: CC(C)c1ccc2nc3sc(C(=O)NCCCCc4cccnc4)cn3c(=O)c2c1 [the 1st table, row 4]
73
